target: T1, TCE-13 (anti-CD3 scFv N103A; anti-TROP2 wt); assay: competition ELISA, TCE on captured CD3
T1 construct: scFv on the Fab heavy chain; also called TCE-13 (N103A)
Where no end group is shown, it is not given here.
quantity: IC50 (µM)

VYCGPEFDESVGCM (cysteine pairing not given here; also: biotinylated, site not given here, mask peptide for the CD3 scFv) [Peptide-67]
3.36
ASQCLGPEWEVCPY (cysteine pairing not given here; also: biotinylated, site not given here, mask peptide for the CD3 scFv) [Peptide-74]
10.6
VYCGPEFDESVGCA (cysteine pairing not given here; also: biotinylated, site not given here, mask peptide for the CD3 scFv) [Peptide-73]
4.07
AYCGPEFDESVGCM (cysteine pairing not given here; also: biotinylated, site not given here, mask peptide for the CD3 scFv) [Peptide-72]
3.96
GSQCLGPEWEVCPY (cysteine pairing not given here; also: biotinylated, site not given here, mask peptide for the CD3 scFv) [Peptide-66]
21.4
GSACLGPEWEVCPY (cysteine pairing not given here; also: biotinylated, site not given here, mask peptide for the CD3 scFv) [Peptide-75]
47.7
SECLVDLQSDPCYW (cysteine pairing not given here; also: biotinylated, site not given here, mask peptide for the CD3 scFv) [Peptide-69]
50.5
VDCGPDGDESILCY (cysteine pairing not given here; also: biotinylated, site not given here, mask peptide for the CD3 scFv) [Peptide-71]
5.08
YLCGPDGDETLACY (cysteine pairing not given here; also: biotinylated, site not given here, mask peptide for the CD3 scFv) [Peptide-70]
2.11
